This listing pairs variants with measured polymerase ribozyme fitness (log ratio).
B1: TPR 5TU (parent)
chain: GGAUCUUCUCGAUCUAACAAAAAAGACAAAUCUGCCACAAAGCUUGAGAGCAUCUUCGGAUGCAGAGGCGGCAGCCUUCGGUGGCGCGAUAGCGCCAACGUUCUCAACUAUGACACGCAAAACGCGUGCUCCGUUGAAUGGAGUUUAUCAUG

Variants of: B1
run_description: polymerase ribozyme fitness, log enrichment relative to wild type (log ratio); higher = more active; in vitro selection for triplet polymerase activity
Fewer inactive variants are shown than the library holds.
Answer using only a numeral; do not append any unit.

Asked: Give its polymerase ribozyme fitness (log ratio) value. Item: A17C U31A G92U A98U G141A
Given back: 0.253

Asked: Give its polymerase ribozyme fitness (log ratio) value. Item: C35U
Given back: -0.0953

Asked: Give its polymerase ribozyme fitness (log ratio) value. Item: U102G U127C
Given back: -4.17
